The entries below are paired with their reported logP.
Assay Endpoint: logP

In [3]: df
Out[3]:
                                    compound  assay_endpoint  recorded_result
 0        Cc1ncc([N+](=O)[O-])n1CCS(C)(=O)=O            logP            -0.82
 1                           NC(=O)c1ccccc1O            logP             1.28
 2                     C(#Cc1ccccc1)c1ccccc1            logP             4.78
 3                          CC(=O)NCc1ccccc1            logP             0.95
 4             Nc1ccc(-c2ccc(N)c(Cl)c2)cc1Cl            logP             3.51
 5               Fc1cc(F)cc(Cn2cc[nH]c2=S)c1            logP             1.98
 6                      Clc1ccc(Cl)c(Cl)c1Cl            logP              4.6
 7  NC(=O)Nc1ccc(C(O)C(CO)NC(=O)C(Cl)Cl)cc1 (stereo not given)            logP             -0.6
 8                              OCCCc1ccccn1            logP             0.58
 9                           Cc1ccc2ncccc2c1            logP             2.57
10                  Nc1ccc([N+](=O)[O-])cc1N            logP             0.88
11                           CCC(C)(C)C(=O)O            logP              1.9
12                        Clc1ccc2cc[nH]c2c1            logP             3.25
13  CN(C)C(N(C)C)=S(I)c1ccc(S(=O)(=O)N(C)C)cc1 (stereo not given)            logP            -0.81
14  COc1cc(N)c(Cl)cc1C(=O)NC1CCN(Cc2ccccc2)CC1            logP             3.58

====

The entries below are paired with their reported logP.
Assay Endpoint: logP

>>> df
                                    compound  recorded_result
 0                    O=c1c2ccccc2oc2ccccc12             3.39
 1                    CS(=O)(=O)c1ccc(Cl)cc1             1.06
 2  CCN1CCN(C(=O)NC(C(=O)NC2C(=O)N3C(C(=O)O)=C(CSc4nnnn4C)CSC23)c2ccc(O)cc2)C(=O)C1=O (stereo not given)            -0.74
 3                              OCCOc1ccccc1             1.16
 4                       CS(=O)(=O)Oc1ccccc1             1.25
 5  Cc1onc(-c2c(Cl)cccc2Cl)c1C(=O)N[C@@H]1C(=O)N2[C@@H]1SC(C)(C)[C@@H]2C(=O)O             2.91
 6   O=C1CN(N=Cc2ccc([N+](=O)[O-])o2)C(=O)N1            -0.47
 7                                 CCN(CC)CC             1.45
 8                                       CCN            -0.13
 9    Cc1nnc2n1-c1sc(Br)cc1C(c1ccccc1Cl)=NC2             2.79
10                       c1ccc(-c2cccnc2)nc1             1.46
11                O=C(C(=O)c1ccccc1)c1ccccc1             3.38
12                              CCCN(CCC)CCC             2.79
13                    COc1ccc(S(N)(=O)=O)cc1             0.47
14            CCOC(=O)C(=Cc1ccccc1F)C(=O)OCC             3.04
